Values compiled from ChEMBL document CHEMBL4433200.

biological target: Proteasome Macropain subunit MB1 (Homo sapiens, UniProt P28074); experiment: Inhibition of chymotrypsin-like activity of human 26S proteasome in human Jurkat cells assessed as decrease in AMC hydrolysis using […] as substrate preincubated for 12 hrs followed by addition of substrate and measured after 2 hrs by fluorometric analysis; assay type: cell-based
Sequence (P28074 whole entry): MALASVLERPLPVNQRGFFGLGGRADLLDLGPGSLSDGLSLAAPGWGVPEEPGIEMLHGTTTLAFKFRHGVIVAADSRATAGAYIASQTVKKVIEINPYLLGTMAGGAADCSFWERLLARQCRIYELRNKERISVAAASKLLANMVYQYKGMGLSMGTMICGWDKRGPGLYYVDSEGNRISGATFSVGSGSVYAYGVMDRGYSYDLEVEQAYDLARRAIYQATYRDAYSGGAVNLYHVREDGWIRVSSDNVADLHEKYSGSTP
quantity: IC50 (µM)
Output spec: scalar in µM, unitless text.

**Query** Form field: reported IC50 of O=C(O[C@@H]1Cc2c(O)cc(O)cc2O[C@@H]1c1cc(O)c(O)c(O)c1)c1cc(O)c(O)c(O)c1 [EPIGALOCATECHIN GALLATE]
**Result** 18
